# reported.conditions: 0.1N HCL, 1.0% DMSO, 24-hour incubation at ambient temperature, maximum theoretical compound concentration 100 μM
Exercise: for every item that follows, state its recorded pH 2 solubility.
Write it as a number; the unit μM goes unstated.

query: # get_value(readout='pH 2 solubility', item= `CN(C(=O)N(c1nn(CC(F)(F)F)c2c(-c3ccc(C#CC(C)(C)S(C)(=O)=O)nc3[C@H](Cc3cc(F)cc(F)c3)NC(=O)Cn3nc(C(F)(F)F)c4c3C(F)(F)[C@@H]3C[C@H]43)ccc(Cl)c12)S(C)(=O)=O)c1ncccc1CN(CC(=O)O)C(=O)OCOP(=O)(O)O` )
result: 2

query: # get_value(readout='pH 2 solubility', item= `CC(C)(C#Cc1ccc(-c2ccc(Cl)c3c(N(C(=O)C[N+](C)(C)C)S(C)(=O)=O)nn(CC(F)(F)F)c23)c([C@H](Cc2cc(F)cc(F)c2)NC(=O)Cn2nc(C(F)(F)F)c3c2C(F)(F)[C@@H]2C[C@H]32)n1)S(C)(=O)=O` )
result: 45

query: # get_value(readout='pH 2 solubility', item= `CC(C)(C#Cc1ccc(-c2ccc(Cl)c3c(N(C(=O)CN(CC(=O)O)CC(=O)O)S(C)(=O)=O)nn(CC(F)(F)F)c23)c([C@H](Cc2cc(F)cc(F)c2)NC(=O)Cn2nc(C(F)(F)F)c3c2C(F)(F)[C@@H]2C[C@H]32)n1)S(C)(=O)=O` )
result: 14

query: # get_value(readout='pH 2 solubility', item= CC(C)(C#Cc1ccc(-c2ccc(Cl)c3c(NS(C)(=O)=O)nn(CC(F)(F)F)c23)c([C@H](Cc2cc(F)cc(F)c2)NC(=O)Cn2nc(C(F)(F)F)c3c2C(F)(F)[C@@H]2C[C@H]32)n1)S(C)(=O)=O [Intermediate 5, reference compound] )
result: 0.11

query: # get_value(readout='pH 2 solubility', item= `CN(CCCC(=O)N(c1nn(CC(F)(F)F)c2c(-c3ccc(C#CC(C)(C)S(C)(=O)=O)nc3[C@H](Cc3cc(F)cc(F)c3)NC(=O)Cn3nc(C(F)(F)F)c4c3C(F)(F)[C@@H]3C[C@H]43)ccc(Cl)c12)S(C)(=O)=O)C(=O)OCOP(=O)(O)O` )
result: 1

----------
# reported.conditions: Beagle, in vivo, po, pH 2
property.measured: Dog F % (suspension) (%)
Write it as a number; the unit % goes unstated.

query: # get_value(readout='Dog F % (suspension)', item= `CC(C)(C#Cc1ccc(-c2ccc(Cl)c3c(N(C(=O)/C=C/C(=O)N(CCC(=O)O)[C@@H](CC(=O)O)C(=O)O)S(C)(=O)=O)nn(CC(F)(F)F)c23)c([C@H](Cc2cc(F)cc(F)c2)NC(=O)Cn2nc(C(F)(F)F)c3c2C(F)(F)[C@@H]2C[C@H]32)n1)S(C)(=O)=O` )
result: 10

query: # get_value(readout='Dog F % (suspension)', item= `CC(C)(C#Cc1ccc(-c2ccc(Cl)c3c(N(C(=O)CCCN(CCC(=O)O)C(=O)OCOP(=O)(O)O)S(C)(=O)=O)nn(CC(F)(F)F)c23)c([C@H](Cc2cc(F)cc(F)c2)NC(=O)Cn2nc(C(F)(F)F)c3c2C(F)(F)[C@@H]2C[C@H]32)n1)S(C)(=O)=O` )
result: 15

query: # get_value(readout='Dog F % (suspension)', item= `CC(C)(C#Cc1ccc(-c2ccc(Cl)c3c(N(C(=O)CCCNC(=O)OCOP(=O)(O)O)S(C)(=O)=O)nn(CC(F)(F)F)c23)c([C@H](Cc2cc(F)cc(F)c2)NC(=O)Cn2nc(C(F)(F)F)c3c2C(F)(F)[C@@H]2C[C@H]32)n1)S(C)(=O)=O` )
result: 17

query: # get_value(readout='Dog F % (suspension)', item= `Cc1cc(CC(=O)O)c(C(C)(C)CC(=O)N(c2nn(CC(F)(F)F)c3c(-c4ccc(C#CC(C)(C)S(C)(=O)=O)nc4[C@H](Cc4cc(F)cc(F)c4)NC(=O)Cn4nc(C(F)(F)F)c5c4C(F)(F)[C@@H]4C[C@H]54)ccc(Cl)c23)S(C)(=O)=O)c(OP(=O)(O)O)c1` )
result: 27

query: # get_value(readout='Dog F % (suspension)', item= `Cc1cc(C(=O)O)cc(OP(=O)(O)O)c1C(C)(C)CC(=O)N(c1nn(CC(F)(F)F)c2c(-c3ccc(C#CC(C)(C)S(C)(=O)=O)nc3[C@H](Cc3cc(F)cc(F)c3)NC(=O)Cn3nc(C(F)(F)F)c4c3C(F)(F)[C@@H]3C[C@H]43)ccc(Cl)c12)S(C)(=O)=O` )
result: 20

query: # get_value(readout='Dog F % (suspension)', item= `Cc1cc(CC(=O)O)cc(OP(=O)(O)O)c1C(C)(C)CC(=O)N(c1nn(CC(F)(F)F)c2c(-c3ccc(C#CC(C)(C)S(C)(=O)=O)nc3[C@H](Cc3cc(F)cc(F)c3)NC(=O)Cn3nc(C(F)(F)F)c4c3C(F)(F)[C@@H]3C[C@H]43)ccc(Cl)c12)S(C)(=O)=O` )
result: 7

query: # get_value(readout='Dog F % (suspension)', item= `CC(C)(CCN(CC(=O)O)C(=O)OCOP(=O)(O)O)C(=O)N(c1nn(CC(F)(F)F)c2c(-c3ccc(C#CC(C)(C)S(C)(=O)=O)nc3[C@H](Cc3cc(F)cc(F)c3)NC(=O)Cn3nc(C(F)(F)F)c4c3C(F)(F)[C@@H]3C[C@H]43)ccc(Cl)c12)S(C)(=O)=O` )
result: 23

query: # get_value(readout='Dog F % (suspension)', item= `CC(C)(C#Cc1ccc(-c2ccc(Cl)c3c(N(C(=O)CCCN(C(=O)OCOP(=O)(O)O)[C@H](C(=O)O)c4ccccc4)S(C)(=O)=O)nn(CC(F)(F)F)c23)c([C@H](Cc2cc(F)cc(F)c2)NC(=O)Cn2nc(C(F)(F)F)c3c2C(F)(F)[C@@H]2C[C@H]32)n1)S(C)(=O)=O` )
result: 5

query: # get_value(readout='Dog F % (suspension)', item= `CN(C(=O)N(c1nn(CC(F)(F)F)c2c(-c3ccc(C#CC(C)(C)S(C)(=O)=O)nc3[C@H](Cc3cc(F)cc(F)c3)NC(=O)Cn3nc(C(F)(F)F)c4c3C(F)(F)[C@@H]3C[C@H]43)ccc(Cl)c12)S(C)(=O)=O)c1ncccc1COP(=O)(O)O` )
result: 5

query: # get_value(readout='Dog F % (suspension)', item= `CC(C)(CNC(=O)OCOP(=O)(O)O)CC(=O)N(c1nn(CC(F)(F)F)c2c(-c3ccc(C#CC(C)(C)S(C)(=O)=O)nc3[C@H](Cc3cc(F)cc(F)c3)NC(=O)Cn3nc(C(F)(F)F)c4c3C(F)(F)[C@@H]3C[C@H]43)ccc(Cl)c12)S(C)(=O)=O` )
result: 4

query: # get_value(readout='Dog F % (suspension)', item= `CC(C)(C#Cc1ccc(-c2ccc(Cl)c3c(N(C(=O)CCCN(CC(=O)O)C(=O)OCOP(=O)(O)O)S(C)(=O)=O)nn(CC(F)(F)F)c23)c([C@H](Cc2cc(F)cc(F)c2)NC(=O)Cn2nc(C(F)(F)F)c3c2C(F)(F)[C@@H]2C[C@H]32)n1)S(C)(=O)=O` )
result: 18

query: # get_value(readout='Dog F % (suspension)', item= `CN(C(=O)N(c1nn(CC(F)(F)F)c2c(-c3ccc(C#CC(C)(C)S(C)(=O)=O)nc3[C@H](Cc3cc(F)cc(F)c3)NC(=O)Cn3nc(C(F)(F)F)c4c3C(F)(F)[C@@H]3C[C@H]43)ccc(Cl)c12)S(C)(=O)=O)c1ncccc1CN(CC(=O)O)C(=O)OCOP(=O)(O)O` )
result: 24

query: # get_value(readout='Dog F % (suspension)', item= `CC(C)(Cc1ccccc1OP(=O)(O)O)C(=O)N(c1nn(CC(F)(F)F)c2c(-c3ccc(C#CC(C)(C)S(C)(=O)=O)nc3[C@H](Cc3cc(F)cc(F)c3)NC(=O)Cn3nc(C(F)(F)F)c4c3C(F)(F)[C@@H]3C[C@H]43)ccc(Cl)c12)S(C)(=O)=O` )
result: 10

query: # get_value(readout='Dog F % (suspension)', item= `CC(C)(CC(=O)N(c1nn(CC(F)(F)F)c2c(-c3ccc(C#CC(C)(C)S(C)(=O)=O)nc3[C@H](Cc3cc(F)cc(F)c3)NC(=O)Cn3nc(C(F)(F)F)c4c3C(F)(F)[C@@H]3C[C@H]43)ccc(Cl)c12)S(C)(=O)=O)CN(CC(=O)O)C(=O)OCOP(=O)(O)O` )
result: 9

query: # get_value(readout='Dog F % (suspension)', item= `Cc1cc(C)c(C(C)(C)CC(=O)N(c2nn(CC(F)(F)F)c3c(-c4ccc(C#CC(C)(C)S(C)(=O)=O)nc4[C@H](Cc4cc(F)cc(F)c4)NC(=O)Cn4nc(C(F)(F)F)c5c4C(F)(F)[C@@H]4C[C@H]54)ccc(Cl)c23)S(C)(=O)=O)c(OP(=O)(O)O)c1` )
result: 16
